experimentSummary: logP determination by HPLC on reversed-phase column (EEC Directive 79/831 Annex V.A8)
Format: physicochemical
conditionLabel: reversed-phase C18 HPLC column; acidic range (pH 2.3), marked a); 0.1% aqueous phosphoric acid/acetonitrile gradient; reversed-phase C 18; 43° C.
Documented chromatographic logP across a set of compounds
Respond numerically, and do not add a unit to the figure.

{"columns": ["compound", "reportedResult"],
 "data": [
  ["CC1=NN(C(=S)Nc2ccc(Cl)cc2Cl)C(O)(C(F)(F)F)C1 (stereo not drawn)", 3.97],
  ["Cc1ccccc1NC(=S)N1N=C(C(C)C)CC1(O)C(F)(F)F (stereo not drawn)", 4.1]
]}

Query: Which value of chromatographic logP has been reported for CC(C)(C)C1=NN(C(=S)NCc2ccc(Cl)cc2)C(O)(C(F)(F)F)C1 (stereo not drawn) in the records?
Response: 4.9

Query: Bench note: what chromatographic logP did COc1ccc(NC(=S)N2N=C(C(C)C)CC2(O)C(F)(F)F)cc1 (stereo not drawn) show?
Response: 3.83

Origin of measurements: patent US20070275967A1
